Reference source: patent US6664231B1

- Test system: mouse RAW 264.7 cells
- condition context: RAW 264.7 cell growth inhibited by 50%
Peptide text beside a SMILES is read from it. * marks the point of attachment. Lauroyl = CCCCCCCCCCCC(=O)*
assay endpoint: IC50 (toxicity/growth inhibition of peptide)

Please report the measured IC50 (toxicity/growth inhibition of peptide) for CCCCCCCCCCCC(=O)N[C@@H](CCCCN)C(=O)N[C@@H](CCCCN)C(=O)N[C@@H](Cc1c[nH]c2ccccc12)C(=O)N[C@@H](C)C(=O)N[C@H](C(=O)N[C@@H](CCC(N)=O)C(=O)N[C@@H](CC(C)C)C(=O)N[C@@H](CCCCN)C(=O)N[C@@H](CCCCN)C(N)=O)[C@@H](C)CC [XMP.411] (Lauroyl-KKWAIQLKK-NH2; C-terminus assumed)
>25 mg/L

---

- assay overview: in vitro
- Type: in vitro ADME, rat or human serum
- condition context: serum, half-life of peptide in serum as detected by HPLC analysis; read-out: HPLC Peptide in Serum t ½ (converted)
- Protocol: For these serum stability experiments, peptides were prepared by solid phase peptide sythesis and purified to 94% or greater purity as described in Example 1. […] The material eluted from the Sep-Pak cartridge was analyzed on a Michrom Ultaafast Microprotein Analyzer equipped with a 150 mm×1 mm, 5μ particle, 300 Å pore C-8 Zorbax column. […]
Square brackets hold non-standard residues; d marks the D form. Peptide text beside a SMILES is read from it. Dab = NCC[C@H](N)C(=O)O
assay endpoint: half-life at 0.5 mg/mL

>  <compound>
CC[C@H](C)[C@H](NC(=O)[C@H](CC(C)C)NC(=O)[C@@H](Cc1c[nH]c2ccccc12)NC(=O)[C@@H](CCCCN)NC(C)=O)C(=O)N[C@@H](CCC(N)=O)C(=O)N[C@@H](CC(C)C)C(=O)N[C@@H](Cc1ccccc1)C(=O)N[C@@H](Cc1c[nH]cn1)C(=O)N[C@H](CCCCN)C(=O)N[C@H](CCCCN)C(N)=O [XMP.364]

>  <half-life at 0.5 mg/mL>
25 h

$$$$

Now look at this entry.
Determine from records and report half-life at 0.5 mg/mL for CC[C@H](C)[C@H](NC(=O)[C@H](CC(C)C)NC(=O)[C@H](Cc1c[nH]c2ccccc12)NC(=O)[C@H](CCCCN)NC(C)=O)C(=O)N[C@@H](CCN)C(=O)N[C@@H](CC(C)C)C(=O)N[C@@H](Cc1ccccc1)C(=O)N[C@@H](Cc1c[nH]cn1)C(=O)N[C@@H](CCCCN)C(=O)N[C@@H](CCCCN)C(N)=O [XMP.372] (Ac-KWLI[Dab]LFHKK-NH2)
6.6 h

---

- Test system: mouse RAW 264.7 cells incubated with E. coli O113 LPS
- condition context: RAW 264.7 cells with E. coli O113 LPS; concentration reversing LPS growth inhibition by 50%
assay endpoint: In Vitro LPS Neutralization EC50

Please indicate recorded In Vitro LPS Neutralization EC50 of H-KSKVPWLIQLFHKK-NH2 [XMP.393P] measured with mouse RAW 264.7 cells incubated with E. coli O113 LPS.
>25 µg/mL
